# System: UACC-62
# MEASUREMENT DESCRIPTION: NCI tumour cell line growth inhibition, 48 h
Activity calls are given as the source filed them. Rule as the data show it: active = GI50 up to about 1.1 µM and inactive = higher.
OUTCOME MEASURE: GI50

>  <MOLECULE>
CCCC(=O)OCC1OC(n2cc(F)c(=O)[nH]c2=O)C(F)C1O (configuration not stated)

>  <GI50>
> 31.5 µM (inactive)

$$$$
>  <MOLECULE>
Cc1c(C(=O)CC(=O)C(=O)Nc2cccc(C(F)(F)F)c2)[n+]([O-])c2ccccc2[n+]1[O-]

>  <GI50>
2.76 µM (inactive)

$$$$
>  <MOLECULE>
CN(C)c1ccc(/C=C/c2ccc(/C=C/c3ccc(N(C)C)cc3)cc2)cc1

>  <GI50>
87.3 µM (inactive)

$$$$
>  <MOLECULE>
COc1cc2c(c3c1c(=O)c1ccccc1n3C)C=CC1(CCCCC1)O2

>  <GI50>
4.14 µM (inactive)

$$$$
>  <MOLECULE>
CCOC(=O)c1nnsc1NN

>  <GI50>
> 100 µM (inactive)

$$$$
>  <MOLECULE>
COC(=O)[C@H](Cc1ccccc1)NC(=O)OCC1OC(n2cc(C)c(=O)[nH]c2=O)CC1N=[N+]=[N-] (some centres not stated)

>  <GI50>
> 100 µM (inactive)

$$$$
>  <MOLECULE>
CC(C)(Oc1ccc(C(=O)c2ccc(Cl)cc2)cc1Cl)C(=O)Nc1c(Cl)cccc1Cl

>  <GI50>
> 100 µM (inactive)

$$$$
>  <MOLECULE>
Cc1cc(C)c(C(=O)c2no[n+]([O-])c2C(=O)c2c(C)cc(C)c(Br)c2C)c(C)c1Br

>  <GI50>
10.7 µM (inactive)

$$$$
>  <MOLECULE>
CNc1ccccc1S(=O)(=O)c1ccccc1[N+](=O)[O-]

>  <GI50>
48.8 µM (inactive)

$$$$
>  <MOLECULE>
CN1CC2CC(C1)c1cccc(=O)n1C2 (configuration not stated)

>  <GI50>
> 100 µM (inactive)

$$$$

I'm hoping you can list GI50 for every molecule here, please.
1. COC(=O)C1CCC(=O)N1C(c1ccc2c(c1)OCO2)c1ccc2c(c1)OCO2 (configuration not stated)
2. O=C1C(Cl)C2(CC(/C=C/c3ccccc3O)=NN2c2cccc(S(=O)(=O)O)c2)N1c1nc2ccccc2s1 (configuration not stated)
3. O=C1c2ccccc2C(=O)C2C1C1C(=O)c3ccccc3C(=O)C21 (configuration not stated)

["> 100 µM (inactive)", "15.2 µM (inactive)", "> 100 µM (inactive)"]

I'm hoping you can list GI50 for every molecule here, please.
1. N#Cc1c(=O)c2ccccc2n2c1[nH]c1ccccc12
2. COC(=O)C(N)CCCC(N)C(=O)NC(C)C(=O)NC(CCC(=O)NCCNCCNc1c2ccccc2nc2cccc([N+](=O)[O-])c12)C(N)=O (configuration not stated)
3. Cc1ccc(S(=O)(=O)Nn2c(O)c(C#N)c(-c3ccc(Cl)cc3)c(C#N)c2=O)cc1
4. CN(C)CCN(C)CCC(=O)/C=C/c1ccccc1

29.4 µM (inactive)
8.09 µM (inactive)
> 100 µM (inactive)
25.4 µM (inactive)

###

Give measured GI50 for each item. Keep answers brief.
# System: MCF7
# MEASUREMENT DESCRIPTION: NCI tumour cell line growth inhibition, 48 h
Active and inactive are the calls of the source. No stated cut-off is given here; in the data, active = GI50 up to about 1.1 µM and inactive = higher.

I'm hoping you can list GI50 for every molecule here, please.
1. COc1ccccc1NC(=S)N/N=C1\C(=O)Nc2ccccc21
2. O=S(=O)(O)c1c(Cl)cc(O)c2ncccc12

["42.6 µM (inactive)", "> 100 µM (inactive)"]

I'm hoping you can list GI50 for every molecule here, please.
1. CNc1ccccc1S(=O)(=O)c1ccccc1[N+](=O)[O-]
2. CC(=O)OC12c3ccccc3-c3ccccc3C1C(C(=O)O)C2(Cl)C(=O)O (stereo not given)

85.1 µM (inactive)
> 10 µM (inactive)

Give recorded GI50 with MCF7 for the following molecule: CCCCCCNCCc1c[nH]cn1
> 100 µM (inactive)

The reported measurements were obtained from ChEMBL document CHEMBL1201862.
